The reported numbers originate from PubChem BioAssay (Tox21).

# protocolNotes: qHTS assay to identify small molecule antagonists of the progesterone receptor (PR) signaling pathway - cell viability counter screen (AID 1346798);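 note: HEK293T PR-UAS-bla cells stimulated with the agonist R5020; nearly all actives have a fitted effect of over 50% in size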
# conditionNotes: PR-UAS-bla HEK293T viability, CellTiter-Glo luminescence, 16 h; series mostly up to 92.4 µM
Records with an inconclusive call do not appear. Active and inactive are the calls of the source. Calls come from the whole dose curve; as a rule, active = well fitted cell-killing curve with a large enough effect in the repeat runs; inconclusive = weak or mixed curves, or effect the other way; inactive = no such curve, though single readings can be large or run the other way.
measurementLabel: activity change, negative = cytotoxicity

* O=[Si]=O | inactive
* CC(C)C(=O)c1ccccc1 | inactive
* C1=CCC(c2ccccc2)CC1 (centres undefined) | inactive
* CCCCOC(=O)[C@@H](C)Oc1ccc(Oc2ccc(C(F)(F)F)cn2)cc1 | inactive
* CC(C)COC(=O)CC(C(=O)OCC(C)C)S(=O)(=O)O (centres undefined) | inactive
* C=CCOCC(O)CCl (centres undefined) | inactive
* O=C1OC(=O)c2cc(Oc3ccc4c(c3)C(=O)OC4=O)ccc21 | inactive
* CC(=O)N1CCN(c2ccc(O)cc2)CC1 | inactive
* CCNC(=O)NCCCOc1cccc(CN2CCCCC2)c1 | inactive
* Cc1ccccc1N1CCN(CCc2nnc3n2CCCC3)CC1 | inactive
* O=S(=O)(O)c1cc(O)ccc1O | inactive
* CC1=NN(c2ccc(S(=O)(=O)O)cc2)C(=O)C1N=Nc1ccccc1 (centres undefined) | inactive
* CC(C)COC(=O)/C=C/c1ccccc1 | inactive
* Cc1ccccc1OCC1CO1 (centres undefined) | inactive
